Record type: IC50 measurement. Applies to: F1F0-ATPase (Bos taurus, UniProt P13621)

Reported IC50 for O=C(/N=C(/Nc1cccc(Cl)c1)Nc1ccc2cn[nH]c2c1)C1CCCCC1 : what is it?
5 to 16 µM

More entries:
Field request: IC50 | item: O=C(Cc1ccc(Cl)cc1)/N=C(/Nc1cc(F)cc(Cl)c1)Nc1ccc2cn[nH]c2c1
< 5 µM
